Compiled record: pIC50 values for UniProtKB Q9Y2K2 across several sources.
pIC50: −log10 of the molar value.
measurement kind: pIC50

{"compound": "CSc1cc(-c2cnc3ccc(N)c(C#N)n23)cc(OCC2(N)CCCC2)c1C#N", "pIC50": 9.40}

(A) Cc1ccc(Nc2ccc3c(c2)ncn3-c2ccc(C=O)c(-n3nc(C#N)cc3C)n2)nn1
(B) Cc1ccc(Nc2ccc3c(c2)ncn3-c2ccc(C(C)O)c(-c3ccnn3C3CC3(F)F)n2)nn1 (stereo not drawn)
**Query** Param pair: A , B . Output: the one whose pIC50 is numerically greater. Identify your selection by its label.
**Result** A

(A) Cc1ccc(Nc2ccc3c(c2)ncn3-c2ccc(C(C)O)c(-n3ncc(C#N)c3C)n2)nn1 (stereo not drawn)
(B) Cc1cc(C#N)nn1-c1nc(-n2cnc3cc(-c4ccc5c(n4)C(=O)N(C)C5)ccc32)ccc1C(C)O (stereo not drawn)
**Query** Hi! Which is lower in terms of pIC50, the first one A or the second one B ? # reply format: chosen label
**Result** A

(I) Cc1cc(C#N)nn1-c1nc(-n2cnc3cc(C#N)ccc32)ccc1C(C)O (stereo not drawn)
(II) Cc1ccc(Nc2cc3ncn(-c4ccc(C(C)O)c(-n5nc(C(F)F)cc5C(F)F)n4)c3cc2F)nn1 (stereo not drawn)
(III) Cc1cc(C#N)nn1-c1nc(-n2cnc3cc(NC4CC(=O)N(C)C4)ccc32)ccc1C(C)O (stereo not drawn)
**Query** Descending sort on pIC50 required. Returns: the labels arranged in the requested order.
**Result** II, III, I
